Below, each entry is listed with its recorded pIC50.
# system.tested: Recombinant ROCK1 (Homo sapiens (Human), UniProt Q13464)
# Sequence (Q13464 whole entry): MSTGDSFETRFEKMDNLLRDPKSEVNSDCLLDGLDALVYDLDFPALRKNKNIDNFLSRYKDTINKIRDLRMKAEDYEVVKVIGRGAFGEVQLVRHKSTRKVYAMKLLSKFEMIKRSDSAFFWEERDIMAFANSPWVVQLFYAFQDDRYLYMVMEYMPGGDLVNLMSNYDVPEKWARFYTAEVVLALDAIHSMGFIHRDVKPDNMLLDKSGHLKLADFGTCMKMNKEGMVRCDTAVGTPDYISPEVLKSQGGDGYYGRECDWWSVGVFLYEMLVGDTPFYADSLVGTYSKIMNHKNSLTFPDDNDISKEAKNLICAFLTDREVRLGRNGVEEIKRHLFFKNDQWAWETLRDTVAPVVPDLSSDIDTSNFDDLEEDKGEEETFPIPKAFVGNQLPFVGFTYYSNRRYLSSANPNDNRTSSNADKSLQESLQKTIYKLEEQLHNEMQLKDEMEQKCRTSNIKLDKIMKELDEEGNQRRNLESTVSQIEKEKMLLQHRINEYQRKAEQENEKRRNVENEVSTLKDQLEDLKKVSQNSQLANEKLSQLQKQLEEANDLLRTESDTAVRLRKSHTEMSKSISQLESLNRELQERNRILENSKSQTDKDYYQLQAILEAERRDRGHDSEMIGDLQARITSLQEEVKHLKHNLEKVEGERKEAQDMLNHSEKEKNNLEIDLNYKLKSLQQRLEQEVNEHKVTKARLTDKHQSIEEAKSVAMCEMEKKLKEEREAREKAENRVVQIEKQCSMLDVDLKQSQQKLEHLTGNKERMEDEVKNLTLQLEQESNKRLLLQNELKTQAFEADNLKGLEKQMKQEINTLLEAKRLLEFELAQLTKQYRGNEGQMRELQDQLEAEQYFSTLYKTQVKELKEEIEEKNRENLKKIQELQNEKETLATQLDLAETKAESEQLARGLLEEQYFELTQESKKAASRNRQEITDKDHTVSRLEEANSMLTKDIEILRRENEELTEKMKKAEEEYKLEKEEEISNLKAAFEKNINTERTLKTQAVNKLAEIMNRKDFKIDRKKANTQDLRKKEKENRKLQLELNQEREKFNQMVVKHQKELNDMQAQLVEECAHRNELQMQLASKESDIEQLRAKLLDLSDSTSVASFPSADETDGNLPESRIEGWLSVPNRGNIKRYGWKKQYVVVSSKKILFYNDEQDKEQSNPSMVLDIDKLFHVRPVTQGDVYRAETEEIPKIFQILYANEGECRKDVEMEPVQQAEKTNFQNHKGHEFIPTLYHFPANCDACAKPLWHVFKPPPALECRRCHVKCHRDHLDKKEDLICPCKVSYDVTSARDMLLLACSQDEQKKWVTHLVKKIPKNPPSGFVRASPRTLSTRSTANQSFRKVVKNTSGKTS
# experiment.summary: Lance Ultra Kinase Assay, ROCK1 inhibition
# condition.notes: ATP at Km, 30 min pre-incubation, 1 h reaction
pIC50: −log10 of the molar value.
quantity: pIC50

[
  {
    "compound": "NCC(C(=O)Nc1cccc2c(-c3cn[nH]c3)c[nH]c12)c1cccc(O)c1 (single isomer, unassigned) [Example 65]",
    "quantity": "pIC50",
    "result.number": 8.36
  },
  {
    "compound": "COc1ccccc1C(CN)C(=O)Nc1cccc2c(-c3cn[nH]c3)c[nH]c12 (racemic) [Example 84]",
    "quantity": "pIC50",
    "result.number": 8.89
  },
  {
    "compound": "N[C@H](Cc1ccccc1)C(=O)Nc1cccc2c(-c3cn[nH]c3)c[nH]c12 [Example 126]",
    "quantity": "pIC50",
    "result.number": 8.20
  },
  {
    "compound": "Cc1cccc(C(CN)C(=O)Nc2cccc3c(-c4cn[nH]c4)c[nH]c23)n1 (racemic) [Example 93]",
    "quantity": "pIC50",
    "result.number": 7.70
  },
  {
    "compound": "Cn1ccc(C(CN)C(=O)Nc2cccc3c(-c4cn[nH]c4)c[nH]c23)cc1=O (racemic) [Example 103]",
    "quantity": "pIC50",
    "result.number": 8.85
  },
  {
    "compound": "NCC(C(=O)Nc1cccc2c(-c3cn[nH]c3)c[nH]c12)C1CCOC1 (racemic) [Example 96]",
    "quantity": "pIC50",
    "result.number": 8.14
  },
  {
    "compound": "Cc1cncc(C(CN)C(=O)Nc2cccc3c(-c4cn[nH]c4)c[nH]c23)c1 (single isomer, unassigned) [Example 63]",
    "quantity": "pIC50",
    "result.number": 9.37
  },
  {
    "compound": "NC[C@@H](NC(=O)c1cccc2c(-c3cn[nH]c3)n[nH]c12)c1ccccc1 [Example 135]",
    "quantity": "pIC50",
    "result.number": 8.35
  },
  {
    "compound": "COc1cccc(C(CN2CCN(C)CC2)C(=O)Nc2cccc3c(-c4cn[nH]c4)c[nH]c23)c1 (single isomer, unassigned) [Example 36]",
    "quantity": "pIC50",
    "result.number": 6.49
  },
  {
    "compound": "N#Cc1cccc(C(CN)C(=O)Nc2cccc3c(-c4cn[nH]c4)c[nH]c23)c1 (single isomer, unassigned) [Example 20]",
    "quantity": "pIC50",
    "result.number": 8.55
  },
  {
    "compound": "N[C@@H](C(=O)Nc1cccc2c(-c3cn[nH]c3)c[nH]c12)c1cccnc1 (single isomer, unassigned) [Example 131]",
    "quantity": "pIC50",
    "result.number": 7.66
  },
  {
    "compound": "NCC(C(=O)Nc1cccc2c(-c3cn[nH]c3)c[nH]c12)c1ccc(C(N)=O)cc1 (single isomer, unassigned) [Example 112]",
    "quantity": "pIC50",
    "result.number": 8.89
  },
  {
    "compound": "COc1cncc(C(CN2CCN(C)CC2)C(=O)Nc2cccc3c(-c4cn[nH]c4)c[nH]c23)c1 (single isomer, unassigned) [Example 111]",
    "quantity": "pIC50",
    "result.number": 6.53
  },
  {
    "compound": "COc1cccc(C(CN)C(=O)Nc2cccc3c(-c4cn[nH]c4)c[nH]c23)c1 (single isomer, unassigned) [Example 18]",
    "quantity": "pIC50",
    "result.number": 9.52
  },
  {
    "compound": "NCC(C(=O)Nc1cccc2c(-c3cn[nH]c3)c[nH]c12)c1ccc(CO)nc1 (single isomer, unassigned) [Example 60]",
    "quantity": "pIC50",
    "result.number": 8.64
  },
  {
    "compound": "NC[C@@H](C(=O)Nc1ncnc2c(-c3cn[nH]c3)c[nH]c12)c1ccccc1 [Example 155]",
    "quantity": "pIC50",
    "result.number": 9.02
  },
  {
    "compound": "NCC(C(=O)Nc1cccc2c(-c3cn[nH]c3)c[nH]c12)C1CCCOC1 (stereo not shown) [Example 91]",
    "quantity": "pIC50",
    "result.number": 8.92
  },
  {
    "compound": "COc1ccc(C(CN)NC(=O)c2cccc3c(-c4cn[nH]c4)c[nH]c23)cc1 (single isomer, unassigned) [Example 145]",
    "quantity": "pIC50",
    "result.number": 7.34
  },
  {
    "compound": "COCCOc1ccc(C(CN)C(=O)Nc2cccc3c(-c4cn[nH]c4)c[nH]c23)cc1 (racemic) [Example 88]",
    "quantity": "pIC50",
    "result.number": 7.77
  },
  {
    "compound": "N[C@H](C(=O)Nc1cccc2c(-c3cn[nH]c3)c[nH]c12)c1ccccc1 [Example 9]",
    "quantity": "pIC50",
    "result.number": 9.62
  },
  {
    "compound": "NCC(C(=O)Nc1cccc2c(-c3cn[nH]c3)c[nH]c12)C1CCOCC1 (single isomer, unassigned) [Example 26]",
    "quantity": "pIC50",
    "result.number": 8.85
  },
  {
    "compound": "NC(C(=O)Nc1cccc2c(-c3cn[nH]c3)c[nH]c12)C1CCCCC1 (racemic) [Example 122]",
    "quantity": "pIC50",
    "result.number": 7.96
  },
  {
    "compound": "NC[C@H](C(=O)Nc1cccc2c(-c3cn[nH]c3)c[nH]c12)c1ccccc1 [Example 14]",
    "quantity": "pIC50",
    "result.number": 8.66
  },
  {
    "compound": "NC(C(=O)Nc1cccc2c(-c3cn[nH]c3)c[nH]c12)c1ccccc1 (racemic) [Example 7]",
    "quantity": "pIC50",
    "result.number": 7.47
  },
  {
    "compound": "NCC(C(=O)Nc1cccc2c(-c3cn[nH]c3)c[nH]c12)C1CCOCC1 (single isomer, unassigned) [Example 27]",
    "quantity": "pIC50",
    "result.number": 7.06
  },
  {
    "compound": "COc1cccc(C(CN)NC(=O)c2cccc3c(-c4cn[nH]c4)c[nH]c23)c1 (single isomer, unassigned) [Example 136]",
    "quantity": "pIC50",
    "result.number": 9.21
  },
  {
    "compound": "COc1cncc(C(CN)C(=O)Nc2cccc3c(-c4cn[nH]c4)c[nH]c23)c1 (racemic) [Example 102]",
    "quantity": "pIC50",
    "result.number": 8.89
  },
  {
    "compound": "Cc1ccc(C(=O)OCc2ccc(C(CN)C(=O)Nc3cccc4c(-c5cn[nH]c5)c[nH]c34)cc2)c(C)c1 (single isomer, unassigned) [Example 6]",
    "quantity": "pIC50",
    "result.number": 6.35
  }
]

====

# system.tested: Recombinant ROCK2 (Homo sapiens (Human))
# Sequence (O75116 whole entry): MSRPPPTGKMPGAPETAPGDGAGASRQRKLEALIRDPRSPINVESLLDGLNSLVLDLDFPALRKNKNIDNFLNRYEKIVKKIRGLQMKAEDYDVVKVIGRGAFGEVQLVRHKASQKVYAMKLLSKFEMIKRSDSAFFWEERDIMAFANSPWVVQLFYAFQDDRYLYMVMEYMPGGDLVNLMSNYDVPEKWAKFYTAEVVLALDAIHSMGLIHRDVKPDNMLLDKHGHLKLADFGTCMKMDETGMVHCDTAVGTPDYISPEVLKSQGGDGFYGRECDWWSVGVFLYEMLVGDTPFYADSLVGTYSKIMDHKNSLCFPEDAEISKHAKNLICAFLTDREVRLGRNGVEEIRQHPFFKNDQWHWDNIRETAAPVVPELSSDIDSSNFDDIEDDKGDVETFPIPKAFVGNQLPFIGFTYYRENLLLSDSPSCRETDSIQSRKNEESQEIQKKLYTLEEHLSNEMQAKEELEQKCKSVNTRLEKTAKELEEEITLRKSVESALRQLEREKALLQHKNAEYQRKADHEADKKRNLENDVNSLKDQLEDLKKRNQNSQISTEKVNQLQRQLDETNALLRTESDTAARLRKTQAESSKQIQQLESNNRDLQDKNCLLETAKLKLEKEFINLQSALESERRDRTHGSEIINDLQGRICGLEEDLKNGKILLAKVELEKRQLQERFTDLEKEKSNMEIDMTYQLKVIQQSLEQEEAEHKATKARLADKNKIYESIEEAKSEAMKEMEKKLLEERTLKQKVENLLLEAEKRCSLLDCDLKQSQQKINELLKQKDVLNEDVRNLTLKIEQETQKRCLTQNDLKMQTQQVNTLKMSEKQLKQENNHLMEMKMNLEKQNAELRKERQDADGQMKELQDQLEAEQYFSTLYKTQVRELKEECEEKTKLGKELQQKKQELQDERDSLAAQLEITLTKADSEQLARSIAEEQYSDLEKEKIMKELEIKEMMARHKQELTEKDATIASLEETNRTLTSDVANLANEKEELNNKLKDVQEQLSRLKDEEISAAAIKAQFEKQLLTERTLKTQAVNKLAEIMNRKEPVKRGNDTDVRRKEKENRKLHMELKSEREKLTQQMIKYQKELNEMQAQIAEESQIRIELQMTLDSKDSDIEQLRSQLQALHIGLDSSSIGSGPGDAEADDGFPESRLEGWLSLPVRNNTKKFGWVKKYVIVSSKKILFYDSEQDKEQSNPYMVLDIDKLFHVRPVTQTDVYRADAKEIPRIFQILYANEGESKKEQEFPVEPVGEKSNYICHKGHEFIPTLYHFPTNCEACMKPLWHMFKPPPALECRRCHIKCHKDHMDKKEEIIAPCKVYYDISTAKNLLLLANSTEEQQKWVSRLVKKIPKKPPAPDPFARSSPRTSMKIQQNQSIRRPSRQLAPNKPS
# experiment.summary: Lance Ultra Kinase Assay, ROCK2 inhibition
# condition.notes: ATP at Km, 30 min pre-incubation, 1 h reaction
pIC50: −log10 of the molar value.

[
  {
    "compound": "COc1cccc(C(CN)NC(=O)c2cccc3c(-c4cn[nH]c4)c[nH]c23)c1 (single isomer, unassigned) [Example 139]",
    "pIC50": 8.51
  },
  {
    "compound": "CN1CCN(C(C(=O)Nc2cccc3c(-c4cn[nH]c4)c[nH]c23)c2ccccc2)CC1 (single isomer, unassigned) [Example 48]",
    "pIC50": 9.08
  },
  {
    "compound": "COc1cccc(C(CN)C(=O)Nc2cccc3c(-c4cn[nH]c4)c[nH]c23)c1 (racemic) [Example 16]",
    "pIC50": 9.43
  },
  {
    "compound": "NCC(C(=O)Nc1cccc2c(-c3cn[nH]c3)c[nH]c12)c1ccc(C(=O)O)cc1 (racemic)",
    "pIC50": 7.19
  },
  {
    "compound": "NCC(Cc1ccccc1)NC(=O)c1cccc2c(-c3cn[nH]c3)c[nH]c12 (racemic)",
    "pIC50": 9.40
  },
  {
    "compound": "NCC(C(=O)Nc1cccc2c(-c3cn[nH]c3)c[nH]c12)C1CCCCC1 (single isomer, unassigned) [Example 24]",
    "pIC50": 8.52
  },
  {
    "compound": "COc1ccc(C(CN)C(=O)Nc2cccc3c(-c4cn[nH]c4)c[nH]c23)cc1 (racemic)",
    "pIC50": 9.04
  }
]
